Just for reference, PubChem BioAssay is where these values come from.

target: NADPH oxidase 5 (Homo sapiens); assay: NOX5-dependent H2O2 signal modulators, primary screen, NOX inhibitor project, cell-based, HEK293-NOX5, Amplex Red fluorescence (AID 1161); details: HEK293-NOX5, ionomycin, 45 min, higher = more signal
Decide by z-score: equal to or exceeding -1 means Condition met, less means Condition not met.

1. C=CCN1C(=O)[C@]2(O[C@H](CCO)[C@@H]([Si](C)(C)c3ccc(OC)cc3)[C@@H]2C)c2ccccc21	Condition not met
2. CCOC(=O)C1=C[C@@H](C(C)(C)C)N(S(=O)(=O)c2ccc(C)cc2)[C@H]1c1ccccc1Cl	Condition met
3. COCCOC(=O)N1C(=O)[C@@]2(c3cc(C#CCC(C(=O)OC)C(=O)OC)ccc31)[C@H](C(N)=O)[C@H]1C(=O)O[C@H](c3ccccc3)[C@H](c3ccccc3)N1[C@@H]2c1ccc(OCCO)cc1	Condition met
4. CCCCCN1CC=CC23O[C@@H]4C=CCOC(=O)[C@@H]4[C@H]2C(=O)N(CCCCCO)[C@@H]3C1=O (some centres not stated)	Condition met
5. CC(=O)c1ccc(C(O)C2C=CC3C(=O)NC(=O)C3N2Nc2ccc(Cl)cc2Cl)cc1 (configuration not stated)	Condition not met
6. CC(C)C[C@H]1NC(=O)[C@@]23C(=O)N[C@@H](Cc4ccccc4)C2[C@H](C)[C@@]2(C)O[C@H]2C3/C=C/C/C=C\CNC(=O)[C@@H]2CCCN2C1=O (some centres not stated)	Condition met
7. C=C(COC)C(=O)CC[C@@H](OC(=O)c1cccnc1)c1cccc(OCCO)c1	Condition not met

---

assay: small-molecule binders of probe aNOTCH2, primary screen, biochemical, small-molecule microarray, 635/667 nm fluorescence (AID 1121); conditions: higher = more signal;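 note: score merges feature fluorescence read at 667 nm with its signal to noise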
PROPERTY_MEASURED: composite z-score

1. CCN(CC)c1ccc(N2CC=CC34O[C@@H]5C=CCOC(=O)[C@@H]5[C@H]3C(=O)N(CCCO)[C@@H]4C2=O)cc1 (some centres not stated)	-0.14
2. CC(C)C[C@@H]1NC(=O)C([C@@H](C)OCc2ccccc2)NC(=O)[C@@]23C(=O)N[C@@H](Cc4ccccc4)C2[C@H](C)[C@@]2(C)O[C@H]2C3/C=C/CC/C=C/CNC1=O (some centres not stated)	-0.128
3. COc1cccc(C[C@H]2C[C@@H](CO[Si](C(C)C)(C(C)C)C(C)C)N3C(=O)[C@@]4(C(C)=O)O[C@@]23[C@@H]2C(=O)N(C)C(=O)[C@@H]24)c1	-0.118
4. COC(=O)Cn1c(C(=O)N(C)C)cc2c1C[C@H]1CN(C(=O)c3ccccc3)[C@@](Cc3ccc(OC)cc3)(C(=O)OC)[C@@H]21	-0.037
5. O=C1C2C=CC(C(O)C(c3ccccc3)c3ccccc3)N(Nc3ccccc3)C2C(=O)N1c1ccccc1 (configuration not stated)	-0.0633
6. C=CCOC(=O)[C@H]1[C@@H]2C(=O)O[C@@H](c3ccccc3)[C@@H](c3ccccc3)N2[C@@H](c2ccc(OCCOC(=O)[C@@H]3C[C@@H]4C(=O)N[C@@H](CC(C)C)C(=O)N4[C@@H]3c3ccc(O)cc3)cc2)[C@]12C(=O)Nc1ccc(I)cc12	-0.0486
7. [N-]=[N+]=NCc1ccccc1C[C@]1(C(=O)N2CCCCC2)N=C(c2ccc(OCCCO)cc2)O[C@H]1c1ccccc1	-0.0323
8. C=C(COC)C(=O)CC[C@@H](OC(=O)c1cccnc1)c1cccc(OCCO)c1	-0.107
9. CN(C)CCCNC(=O)[C@@H]1c2ccccc2C(=O)N(C2Cc3ccccc3C2)[C@H]1c1ccc(CO)cc1	0.197
10. CCOC(=O)C[C@H]1[C@H](OC(=O)c2cc3ccccc3oc2=O)[C@@H](NC(=O)C2CCCCC2)c2cc(OCCCO)ccc2N1C(=O)Cc1ccc(OC)cc1	-0.0111
11. CC(C)[C@@H](C(=O)O)n1cc(-c2ccccc2)nn1	-0.0454
12. O=C1c2ccccc2[C@@]2(Cc3ccccc3N(Cc3ccccc3)C2=O)[C@H](c2ccc(CO)cc2)N1Cc1ccccc1	-0.125
13. Cc1ccccc1C(O)C1C=CC2C(=O)N(c3ccccc3)C(=O)C2N1Nc1ccccc1F (configuration not stated)	0.161
14. NCCCC[C@@H]1NC(=O)[C@H]2C[C@@H](C(=O)NCc3ccc(F)cc3)[C@@H](c3cccc(OCCO)c3)N2C1=O	-0.0995
15. CN1C=C(C(=O)OCCS(C)(=O)=O)C(C(=O)OCCS(C)(=O)=O)=CC(CCCO)=CC1c1ccc(CN2CCCC2)cc1 (configuration not stated)	-0.146
16. C=CCC(OC(C)=O)[C@@H]1[C@@H](N(Cc2cc3ccccc3o2)C(=O)c2ccc(-c3ccccc3)cc2)c2cc(OCCCO)ccc2N1C(=O)c1ccc2ccccc2n1 (some centres not stated)	-0.0901
17. O=C1O[C@H](c2ccccc2)[C@H](c2ccccc2)N2[C@H]1[C@@H](C(=O)NC[C@H](O)c1ccccc1)[C@]1(C(=O)Nc3ccc(C#CCCO)cc31)[C@H]2c1ccccc1OCCO	-0.0666
18. C[C@@H](OCc1ccccc1)C1NC(=O)[C@@]23C(=O)N[C@@H](Cc4ccccc4)C2[C@H](C)[C@@]2(C)O[C@H]2C3/C=C/C/C=C\CNC(=O)[C@H](Cc2ccccc2)NC1=O (some centres not stated)	-0.153
19. CCCC=C(CCC)[C@@H](NS(=O)(=O)c1ccc(Cl)cc1)c1ccccc1	0.194
20. NCCCC[C@@H]1NC(=O)[C@H]2C[C@@H](C(=O)NCc3ccc(F)cc3)[C@@H](c3ccc(O)cc3)N2C1=O	-0.0531
21. COc1ccc(NN2C(C(O)c3cc(C(F)(F)F)cc(C(F)(F)F)c3)C=CC3C(=O)N(C4CCCCC4)C(=O)C32)cc1 (configuration not stated)	0.659
22. Cc1ccc(S[C@]2(C(=O)NCC(F)(F)F)CC(=O)N(C3CCCCC3)[C@@H]2c2ccc(CO)cc2)cc1	-0.11
23. C=CC[C@]1(C(=O)N(C)C)COC(c2ccc(OCCCO)cc2)=N1	0.107
24. COCCOC(=O)N1C(=O)[C@@]2(c3cc(C#CCC(C(=O)OC)C(=O)OC)ccc31)[C@H](c1ccc(OCCO)cc1)N1[C@H](c3ccccc3)[C@H](c3ccccc3)OC(=O)[C@H]1[C@@H]2C(=O)N1CCCCCCC1	0.597
25. COCCOC(=O)N1C(=O)[C@@]2(c3cc(C#CC4(O)CCCCCC4)ccc31)[C@H](C(=O)N1CCc3cc(OC)c(OC)cc3C1)[C@H]1C(=O)O[C@H](c3ccccc3)[C@H](c3ccccc3)N1[C@@H]2c1ccc(O)cc1	0.0012
26. CCCCC(=C=CC[C@H](O)c1ccc(OCCO)cc1)C[C@H](O)c1ccccn1	-0.0614
27. COC(=O)[C@@]1(Cc2ccc(F)cc2)[C@H]2c3cc(C(=O)N4CCCC4)n(CCO)c3C[C@H]2CN1C(=O)c1ccccc1	0.227
